Tested on: 997726-040-R-J2-PDC tumor spheroids, viability;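 further: spheroids exposed to compounds for seven days before readout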
protocol_notes: Anticancer human tumor 997726-040-R-J2-PDC patient-derived squamous cell lung carcinoma cell line growth inhibition [PI3K]
condition_notes: curve of first compound; second compound 0.1 µM; spheroids with HUVEC and MSC
quantity_name: IC50

CC(Cn1ccc(-c2ccc(C#N)c(Cl)c2)n1)NC(=O)c1cc(C(C)O)[nH]n1 (configuration not stated) + CC(Nc1ccc2c(c1)OCCn1cc(N3C(=O)OCC3C(F)F)nc1-2)C(N)=O | < 0.0316 µM
CNC(=O)c1ccc(N2C(=S)N(c3ccc(C#N)c(C(F)(F)F)c3)C(=O)C2(C)C)cc1F + COc1c(OCCCN2CCOCC2)ccc2c3n(c(=NC(=O)c4cnc(N)nc4)nc12)CCN3 | < 0.0316 µM
CC(=O)c1c(C)c2cnc(Nc3ccc(N4CCNCC4)cn3)nc2n(C2CCCC2)c1=O + Cc1nc(NC(=O)N2CCCC2C(N)=O)sc1-c1ccnc(C(C)(C)C(F)(F)F)c1 | 0.0587 µM
CC1(C)CCC(Nc2ncc(C(F)(F)F)c(-c3c[nH]c4c(P(C)(C)=O)c(C#N)ccc34)n2)CN1 (configuration not stated) + COc1c(OCCCN2CCOCC2)ccc2c3n(c(=NC(=O)c4cnc(N)nc4)nc12)CCN3 | < 0.0316 µM
CC(C)n1nc(-c2ccc3oc(N)nc3c2)c2c(N)ncnc21 + COc1c(OCCCN2CCOCC2)ccc2c3n(c(=NC(=O)c4cnc(N)nc4)nc12)CCN3 | < 0.000316 µM
Cn1nccc1Nc1nccc(-c2ccn(C(CO)c3ccc(Cl)c(F)c3)c(=O)c2)n1 (configuration not stated) + CC(Nc1ncnc2nc[nH]c12)c1cc2cccc(Cl)c2c(=O)n1-c1ccccc1 | > 10 µM

// query Please report IC50 for the following compound: CNC(=O)c1ccc(N2C(=S)N(c3ccc(C#N)c(C(F)(F)F)c3)C(=O)C2(C)C)cc1F + CC(Nc1ncnc2nc[nH]c12)c1cc2cccc(Cl)c2c(=O)n1-c1ccccc1
// result > 10 µM

// query Please report IC50 for the following compound: Cn1cnc2c(F)c(Nc3ccc(Br)cc3Cl)c(C(=O)NOCCO)cc21 + CC(Nc1ncnc2nc[nH]c12)c1cc2cccc(Cl)c2c(=O)n1-c1ccccc1
// result 0.467 µM

// query Please report IC50 for the following compound: CC(C)n1nc(-c2ccc3oc(N)nc3c2)c2c(N)ncnc21 + Cc1nc(NC(=O)N2CCCC2C(N)=O)sc1-c1ccnc(C(C)(C)C(F)(F)F)c1
// result 0.0107 µM

// query Please report IC50 for the following compound: Cn1ncc(Cl)c1-c1cc(C(=O)NC(CN)Cc2cccc(F)c2)sc1Cl (configuration not stated) + COc1c(OCCCN2CCOCC2)ccc2c3n(c(=NC(=O)c4cnc(N)nc4)nc12)CCN3
// result < 0.0316 µM

// query Please report IC50 for the following compound: CNC(=O)c1ccc(N2C(=S)N(c3ccc(C#N)c(C(F)(F)F)c3)C(=O)C2(C)C)cc1F + CC(Nc1ccc2c(c1)OCCn1cc(N3C(=O)OCC3C(F)F)nc1-2)C(N)=O
// result < 0.0316 µM

// query Please report IC50 for the following compound: CCN1CCN(Cc2ccc(Nc3ncc(F)c(-c4cc(F)c5nc(C)n(C(C)C)c5c4)n3)nc2)CC1 + COc1c(OCCCN2CCOCC2)ccc2c3n(c(=NC(=O)c4cnc(N)nc4)nc12)CCN3
// result < 0.00316 µM
